Measured pKi by item
- TGT: dopamine D-1 receptor (Rattus norvegicus, UniProt P18901)
- Sequence (P18901 whole entry): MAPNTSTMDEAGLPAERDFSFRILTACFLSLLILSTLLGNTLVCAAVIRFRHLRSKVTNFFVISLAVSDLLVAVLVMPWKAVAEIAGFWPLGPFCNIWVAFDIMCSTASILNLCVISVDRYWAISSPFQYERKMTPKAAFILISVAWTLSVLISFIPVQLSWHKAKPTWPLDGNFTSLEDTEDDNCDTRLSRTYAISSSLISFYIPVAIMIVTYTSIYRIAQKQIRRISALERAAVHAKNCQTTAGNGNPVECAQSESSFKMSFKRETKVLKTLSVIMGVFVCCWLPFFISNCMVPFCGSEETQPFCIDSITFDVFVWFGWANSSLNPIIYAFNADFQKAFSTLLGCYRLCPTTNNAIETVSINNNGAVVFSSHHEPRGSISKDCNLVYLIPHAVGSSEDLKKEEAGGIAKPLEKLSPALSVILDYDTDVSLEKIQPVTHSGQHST
- PROTOCOL_DETAILS: biochemical
- RECORDED_CONDITIONS: D-1 Ki, rat caudate, [125I]SCH-23982
Recall that pKi is obtained by taking minus log10 of the concentration measured in molar.

MOLECULE: NCC1=CC2(CCCCCCCCC2)Cc2c1ccc(O)c2O
pKi: 5.41

MOLECULE: NC[C@H]1O[C@@H](COc2ccccc2)Cc2c1ccc(O)c2O (relative stereo)
pKi: 6.42

MOLECULE: CCCC(=O)Oc1ccc2c(c1OC(=O)CCC)CC(c1ccccc1)C=C2CN (stereo not drawn)
pKi: 6.10

MOLECULE: Oc1ccc2c(c1O)CC(C13CC4CC(CC(C4)C1)C3)C1=C2CNCC1 (stereo not drawn)
pKi: 5.29

MOLECULE: CC(C)(C)CC1Cc2c(ccc(O)c2O)C(CN)O1.Cl (stereo not drawn) [Example 214, Hydrochloride]
pKi: 7.70

Kindly review the next molecule as well.
Asked: Requested read-out: pKi. Entry: C=CCC[C@@H]1Cc2c(ccc(O)c2O)[C@H](CN)O1 (relative stereo)
Given back: 7.19

---

Measured pEC50 by item
- TGT: dopamine D-1 receptor
- RECORDED_CONDITIONS: read-out: EC50 (agonist activity in adenylate cyclase assay); tissue from goldfish retina or rat striatum
Where a name gives a salt, the structure may show the parent alone.
Recall that pEC50 is obtained by taking minus log10 of the concentration measured in molar.

Check out these entries, answers already filled in.
COMPOUND: CNCC1=CC(c2ccccc2)Cc2c1ccc(O)c2O (stereo not shown)
TGT: dopamine D-1 receptor
pEC50: 7.44
//
COMPOUND: NCC1OC2(CCCCCCC2)Cc2c1ccc(O)c2O (stereo not shown)
TGT: dopamine D-1 receptor
pEC50: 7.15
//
COMPOUND: Cc1cc2c(c(O)c1O)C[C@@H](C1CCCCC1)O[C@H]2CN (relative stereo) [Example 177, Hydrochloride]
TGT: dopamine D-1 receptor
pEC50: 6.77

Kindly review the next compound as well.
Asked: Requested read-out: pEC50. Entry: C=CCNC[C@@H]1O[C@H](C(C)(C)C)Cc2c1ccc(O)c2O
Given back: 6.00

---

- TGT: dopamine D-1 receptor
- RECORDED_CONDITIONS: read-out: EC50 (agonist activity in adenylate cyclase assay); tissue from goldfish retina or rat striatum
RECORDED_ENDPOINT: log10(EC50) (log10 of the value in µM)
Plainly stated, the numbers are log10 of EC50 given in µM.

Check out these entries, answers already filled in.
COMPOUND: NC[C@H]1O[C@@H](CN2CCCCC2)Cc2c1ccc(O)c2O (relative stereo) [Example 158]
RECORDED_ENDPOINT: log10(EC50)
VALUE_OBSERVED: -0.48
--
COMPOUND: CC(C)(C)C[C@H]1Cc2c(ccc(O)c2O)[C@@H](CN)O1 (relative stereo) [Example 104]
RECORDED_ENDPOINT: log10(EC50)
VALUE_OBSERVED: -1.27
--
COMPOUND: NC[C@@H]1O[C@H](CC2CCCC2)Cc2c1ccc(O)c2O (relative stereo) [Example 78]
RECORDED_ENDPOINT: log10(EC50)
VALUE_OBSERVED: -1.82
--
COMPOUND: CC[C@H]1Cc2c(ccc(O)c2O)[C@@H](CN)O1 (relative stereo) [Example 51]
RECORDED_ENDPOINT: log10(EC50)
VALUE_OBSERVED: -0.74
--
COMPOUND: NC[C@H]1O[C@@H](CCO)Cc2c1ccc(O)c2O (relative stereo) [Example 160]
RECORDED_ENDPOINT: log10(EC50)
VALUE_OBSERVED: -0.85

Asked: Requested read-out: log10(EC50). Entry: NC[C@@H]1O[C@H](CC2CCCCC2)Cc2c1ccc(O)c2O (relative stereo) [Example 88]
Given back: -1.92

Asked: Requested read-out: log10(EC50). Entry: CNC[C@H]1O[C@@H](Cc2ccc(OC)cc2)Cc2c1ccc(O)c2O (relative stereo) [Example 137]
Given back: 0.00

Asked: Requested read-out: log10(EC50). Entry: NCC1=CC(c2ccc(O)cc2)Cc2c1ccc(O)c2O (stereo not shown) [Example 39]
Given back: -1.30

Asked: Requested read-out: log10(EC50). Entry: CNC[C@H]1O[C@@H](CCN)Cc2c1ccc(O)c2O (relative stereo) [Example 173]
Given back: -0.41

---

- TGT: dopamine D-2 receptor (Rattus norvegicus)
- PROTOCOL_DETAILS: biochemical
- Format: binding
- RECORDED_CONDITIONS: rat caudate, [125I]-p-aminophenylethyl spiroperidol; read-out: D-2 Ki
One threshold, 3000 nM, splits the recorded Ki values: lower ones are TRUE, equal or higher ones are FALSE.

COMPOUND: NC[C@H]1O[C@@H](CNC(=O)c2ccccc2)Cc2c1ccc(O)c2O (relative stereo)
LABEL_CLASS: TRUE
--
COMPOUND: C=CCC[C@H]1Cc2c(ccc(O)c2O)[C@@H](CNC)O1 (relative stereo)
LABEL_CLASS: TRUE

Here is the next item to consider.
Asked: Record CNC[C@@H]1O[C@H](C23CC4CC(CC(C4)C2)C3)Cc2c1cc(F)c(O)c2O : is its Ki strictly below 3000 nM?
Given back: FALSE

---

Measured Ki by item
- TGT: dopamine D-1 receptor (Rattus norvegicus, UniProt P18901)
- PROTOCOL_DETAILS: biochemical
- RECORDED_CONDITIONS: D-1 Ki, rat caudate, [125I]SCH-23982
Give just the number in nM; leave the unit off.

MOLECULE: C=CCNC[C@H]1O[C@@H](c2ccccc2)Cc2c1ccc(O)c2O (stereo in doubt)
Ki [nM]: 160
//
MOLECULE: NC[C@H]1O[C@@H](COc2ccccc2-c2ccccc2)Cc2c1ccc(O)c2O (relative stereo)
Ki [nM]: 2200
//
MOLECULE: CC(C)(C)C1C=C(CN)c2ccc(O)c(O)c2C1 (centres unmarked)
Ki [nM]: 330
//
MOLECULE: CC(C)C(=O)Oc1ccc2c(c1OC(=O)C(C)C)CC(c1ccccc1)C=C2CN (centres unmarked)
Ki [nM]: 1300
//
MOLECULE: CN(C)C[C@@H]1O[C@H](C(C)(C)C)Cc2c1ccc(O)c2O
Ki [nM]: 400

Asked: Requested read-out: Ki. Entry: CNC[C@@H]1O[C@H](C23CC4CC(CC(C4)C2)C3)Cc2c1cc(F)c(O)c2O
Given back: 67

Asked: Requested read-out: Ki. Entry: CCCCCCCCCC[C@@H]1Cc2c(ccc(O)c2O)[C@H](CN)O1 (relative stereo)
Given back: 14000

Asked: Requested read-out: Ki. Entry: CCNC[C@@H]1O[C@H](C(C)(C)C)Cc2c1ccc(O)c2O
Given back: 570

---

Measured Intrinsic Activity (adenylate cyclase assay) by item
- System: dopamine D-1 receptor
- RECORDED_CONDITIONS: dopamine = 100; goldfish retina or rat striatum
Form rule: numeric answer, no unit written next to it.

MOLECULE: NC[C@H]1O[C@@H](CNC(=O)c2ccco2)Cc2c1ccc(O)c2O (relative stereo)
TGT: dopamine D-1 receptor
VALUE_OBSERVED: 103
//
MOLECULE: NCC1=CC2(CCCCC2)Cc2c1ccc(O)c2O
TGT: dopamine D-1 receptor
VALUE_OBSERVED: 65
//
MOLECULE: CC(C)(C)c1ccc(OC[C@H]2Cc3c(ccc(O)c3O)[C@@H](CN)O2)cc1 (relative stereo)
TGT: dopamine D-1 receptor
VALUE_OBSERVED: 56
//
MOLECULE: CNCC1OC(CC2CCCC2)Cc2c1ccc(O)c2O (stereo not drawn)
TGT: dopamine D-1 receptor
VALUE_OBSERVED: 115
//
MOLECULE: Oc1ccc2c(c1O)CC1(CCCCCCCCC1)C1=C2CNCC1
TGT: dopamine D-1 receptor
VALUE_OBSERVED: 70
//
MOLECULE: CNCC1OC2(CCCCCCCC2)Cc2c1ccc(O)c2O (stereo not drawn)
TGT: dopamine D-1 receptor
VALUE_OBSERVED: 64
//
MOLECULE: NC[C@@H]1O[C@H](c2ccccc2)Cc2c1cc(Br)c(O)c2O (relative stereo)
TGT: dopamine D-1 receptor
VALUE_OBSERVED: 111
//
MOLECULE: NCC1=CC2(CCCCCCCC2)Cc2c1ccc(O)c2O
TGT: dopamine D-1 receptor
VALUE_OBSERVED: 49

Asked: Kindly state the measured Intrinsic Activity (adenylate cyclase assay) obtained for NCC1CC2(CCCCCCCCC2)Cc2c1ccc(O)c2O (stereo not drawn) with dopamine D-1 receptor.
Given back: 34

---

- TGT: dopamine D-2 receptor (Rattus norvegicus, UniProt P61169)
- Sequence (P61169 whole entry): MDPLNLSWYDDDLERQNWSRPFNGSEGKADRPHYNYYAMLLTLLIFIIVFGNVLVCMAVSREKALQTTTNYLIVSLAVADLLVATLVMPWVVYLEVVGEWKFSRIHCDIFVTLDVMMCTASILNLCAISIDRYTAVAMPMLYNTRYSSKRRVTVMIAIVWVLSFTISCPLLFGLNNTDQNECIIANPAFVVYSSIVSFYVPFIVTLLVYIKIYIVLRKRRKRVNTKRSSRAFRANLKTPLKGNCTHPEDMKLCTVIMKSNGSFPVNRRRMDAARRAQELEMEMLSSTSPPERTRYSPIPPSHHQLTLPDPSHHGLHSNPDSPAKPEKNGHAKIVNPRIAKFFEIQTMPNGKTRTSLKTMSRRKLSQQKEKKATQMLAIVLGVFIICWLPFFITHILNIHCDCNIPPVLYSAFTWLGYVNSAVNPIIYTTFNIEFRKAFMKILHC
- PROTOCOL_DETAILS: biochemical
- Assay type: binding
- RECORDED_CONDITIONS: rat caudate, [125I]-p-aminophenylethyl spiroperidol; read-out: D-2 Ki
Counter-ions that a name gives are not always drawn.
Measured pKi by item
Recall that pKi is obtained by taking minus log10 of the concentration measured in molar.

Check out these entries, answers already filled in.
COMPOUND: Oc1ccc2c(c1O)CC1(CCCCCC1)C1=C2CNCC1 [Example 199, Hydrobromide]
pKi: 5.85

COMPOUND: CNCC1=CC(c2ccccc2)Cc2c1ccc(O)c2O (stereo not shown)
pKi: 4.72

COMPOUND: NCC1=CC2(CCCCCC2)Cc2c1ccc(O)c2O
pKi: 5.15

COMPOUND: NC[C@@H]1O[C@H](CN2Cc3ccccc3C2=O)Cc2c1ccc(O)c2O (relative stereo)
pKi: 6.15

COMPOUND: NC[C@@H]1O[C@H](C2CCCCC2)CCc2c1ccc(O)c2O (relative stereo) [Example 176, Hydrochloride]
pKi: 5.59

Asked: Kindly state the measured pKi obtained for NC[C@@H]1O[C@H](C2CCCCC2)Cc2c1cc(Br)c(O)c2O (relative stereo) with dopamine D-2 receptor (Rattus norvegicus, UniProt P61169).
Given back: 5.34

Asked: Kindly state the measured pKi obtained for CCCCC[C@H]1Cc2c(ccc(O)c2O)[C@@H](CNC)O1 (relative stereo) with dopamine D-2 receptor (Rattus norvegicus, UniProt P61169).
Given back: 7.04

Asked: Kindly state the measured pKi obtained for CNC[C@@H]1O[C@H](CC23CC4CC(CC(C4)C2)C3)Cc2c1ccc(O)c2O (relative stereo) with dopamine D-2 receptor (Rattus norvegicus, UniProt P61169).
Given back: 5.49

Asked: Kindly state the measured pKi obtained for C=CCCCC[C@@H]1Cc2c(ccc(O)c2O)[C@H](CN)O1 (relative stereo) with dopamine D-2 receptor (Rattus norvegicus, UniProt P61169).
Given back: 6.19

Asked: Kindly state the measured pKi obtained for NC[C@@H]1O[C@H](CC2CCCCC2)Cc2c1ccc(O)c2O (relative stereo) with dopamine D-2 receptor (Rattus norvegicus, UniProt P61169).
Given back: 5.82

Asked: Kindly state the measured pKi obtained for Oc1ccc2c(c1O)C[C@H](c1ccccc1)C[C@H]2[C@H]1CCCN1 (relative stereo) [Example 181, Hydrobromide] with dopamine D-2 receptor (Rattus norvegicus, UniProt P61169).
Given back: 5.34

Asked: Kindly state the measured pKi obtained for NC[C@H]1O[C@@H](CO)Cc2c1ccc(O)c2O (relative stereo) [Example 155, Hydrochloride] with dopamine D-2 receptor (Rattus norvegicus, UniProt P61169).
Given back: 5.09

Cited source for all entries: patent US5621133A
